molecular target: HIV protease (Human immunodeficiency virus type 1 group M subtype B); test: Fluorogenic assay for screening inhibitors of HIV protease; assay type: biochemical; conditions: Inhibitor Concentration 0.5 nanomolar
Tick Yes if Percent Inhibition is 70% or greater. Tick No if Percent Inhibition is less than 70%.

Kindly determine if Percent Inhibition recorded for CC(C)[C@@H](C(=O)N[C@@H](Cc1ccccc1)C[C@H](O)[C@H](Cc1ccccc1)NC(=O)OCc1cncs1)N1CCNC1=O is above or exactly 70%.
No

Okay, and Cc1cccc(C)c1OCC(=O)N[C@@H](Cc1ccccc1)[C@@H](O)C[C@H](Cc1ccccc1)NC(=O)[C@H](C(C)C)N1CCCC1=O [Example 17C] ?
Yes

Okay, and CC(C)[C@@H](C(=O)N[C@@H](Cc1ccccc1)C[C@H](O)[C@H](Cc1ccccc1)NC(=O)O[C@H]1CO[C@H]2OCC[C@H]21)N1CCN(C)C1=O ?
No

Okay, and Cc1cc(N)cc(C)c1OCC(=O)N[C@@H](Cc1ccccc1)[C@@H](O)C[C@H](Cc1ccccc1)NC(=O)[C@H](C(C)C)N1CCNC1=O [Example 10F] ?
Yes

Okay, and Cc1cccc(C)c1OCC(=O)N[C@@H](Cc1ccccc1)[C@@H](O)C[C@H](NC(=O)[C@H](C(C)C)N1CCCNC1=O)C(C)C [Example 27D] ?
Yes

Okay, and Cc1cccc(C)c1OCC(=O)N[C@@H](Cc1ccccc1)[C@@H](O)C[C@H](Cc1ccccc1)NC(=O)[C@@H](N1CCNC1=O)C(C)(C)C ?
No
